- condition_parameters: in THF, 298.15 K
readout_label: solubility (mole fraction)

*Q* Output solubility (mole fraction) of CSCC1CN(/N=C/c2ccc([N+](=O)[O-])o2)C(=O)O1 (stereo unspecified)
*A* 0.000801

----------
- condition_parameters: in isopropanol, 313.15 K
readout_label: solubility (mole fraction)
One number for each entry.

*Q* Look up and state reported solubility (mole fraction) for CSCC1CN(/N=C/c2ccc([N+](=O)[O-])o2)C(=O)O1 (stereo unspecified)
*A* 4.94e-05

----------
- condition_parameters: in DMF, 293.15 K
readout_label: solubility (mole fraction)

*Q* Answer with reported solubility (mole fraction) of CSCC1CN(/N=C/c2ccc([N+](=O)[O-])o2)C(=O)O1 (stereo unspecified)
*A* 0.012
